test.system: Human immunodeficiency virus type 1 integrase (Human immunodeficiency virus 1, UniProt Q7ZJM1)
Sequence (Q7ZJM1 whole entry): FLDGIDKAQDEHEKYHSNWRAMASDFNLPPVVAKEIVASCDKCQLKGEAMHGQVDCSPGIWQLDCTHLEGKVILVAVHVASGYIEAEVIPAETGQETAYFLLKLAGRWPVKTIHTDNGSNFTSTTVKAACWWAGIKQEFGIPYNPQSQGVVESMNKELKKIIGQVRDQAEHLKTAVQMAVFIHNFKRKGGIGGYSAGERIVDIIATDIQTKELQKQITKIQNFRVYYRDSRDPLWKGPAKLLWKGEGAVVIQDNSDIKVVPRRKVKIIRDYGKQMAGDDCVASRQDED
test.details: Inhibition of wild-type HIV1 integrase 3'-processing activity using [32P]-5'-end-labeled 5'-GTGTGGAAAATCTCTAGCAGT-3' as substrate after 1 hr
Task for the reader: assign each of the following compounds its reported IC50.

Quick one: IC50 for `O=C(NCc1cccc2ccccc12)c1cccc(O)c1O` ?
> 100 µM

Quick one: IC50 for `O=C(NCc1ccc(F)c(F)c1)c1cccc(O)c1O` ?
> 100 µM

Quick one: IC50 for `O=C(O)c1cccc(OCc2ccc3ccccc3c2)c1O` ?
> 100 µM

Quick one: IC50 for `O=C(NC1CCCCC1)c1cccc(O)c1O` ?
> 100 µM

Quick one: IC50 for `O=C(NCc1cccs1)c1cc(S(=O)(=O)N2CCCCC2)cc(O)c1O` ?
> 100 µM

###

Task for the reader: assign each of the following molecules its reported pIC50.
test.system: Human immunodeficiency virus type 1 integrase (Human immunodeficiency virus 1)
test.details: Inhibition of wild-type HIV1 integrase 3'-processing activity using [32P]-5'-end-labeled 5'-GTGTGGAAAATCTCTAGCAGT-3' as substrate after 1 hr
pIC50: −log10 of the molar value.

Quick one: pIC50 for `O=C(NCc1ccco1)c1cccc(O)c1O` ?
4.05

Quick one: pIC50 for `O=C(NCC1CCCCC1)c1cccc(O)c1O` ?
< 4.00

Quick one: pIC50 for `O=C(O)c1cccc(OCc2ccccc2)c1O` ?
< 4.00

Quick one: pIC50 for `COc1cc(S(=O)(=O)N2CCCCC2)cc(C(=O)NCc2ccco2)c1O` ?
< 4.00

Quick one: pIC50 for `O=C(NCc1ccco1)c1cc(S(=O)(=O)N2CCCCC2)cc(O)c1O` ?
< 4.00

Quick one: pIC50 for `O=C(O)c1ccc(OCc2ccc(F)cc2)cc1O` ?
< 4.00

Quick one: pIC50 for `O=C(NO)c1ccc(OCc2ccc(F)cc2)cc1O` ?
< 4.00

Quick one: pIC50 for `O=C(NCc1ccc(F)cc1)c1cc(S(=O)(=O)N2CCCCC2)cc(O)c1O` ?
3.70

Quick one: pIC50 for `CNS(=O)(=O)c1cc(O)c(O)c(C(=O)NCc2ccc(F)cc2)c1` ?
< 4.00

###

Task for the reader: assign each of the following molecules its reported pIC50.
test.details: Inhibition of HIV1 His6-tagged integrase-LEDGF/p75 interaction after 30 mins by AlphaScreen assay
pIC50: −log10 of the molar value.

Quick one: pIC50 for `O=C(NC1CCCCC1)c1cccc(O)c1O` ?
< 4.00

Quick one: pIC50 for `O=C(NCc1ccc(C(F)(F)F)cc1)c1cc(S(=O)(=O)N2CCCCC2)cc(O)c1O` ?
< 4.00

Quick one: pIC50 for `O=C(NCc1ccco1)c1cc(S(=O)(=O)N2CCCCC2)cc(O)c1O` ?
< 4.00

Quick one: pIC50 for `CN(C)Cc1ccc(C(=O)NCc2ccco2)c(O)c1O` ?
< 4.30

Quick one: pIC50 for `CNS(=O)(=O)c1cc(O)c(O)c(C(=O)NCc2ccc(F)cc2)c1` ?
< 4.00

Quick one: pIC50 for `O=C(NC1CCNCC1)c1cccc(O)c1O` ?
< 4.00

Quick one: pIC50 for `O=C(NCc1cccs1)c1cc(S(=O)(=O)N2CCCCC2)cc(O)c1O` ?
< 4.30

Quick one: pIC50 for `CNC(=O)c1cc(F)ccc1CNC(=O)c1cccc(O)c1O` ?
< 4.00

Quick one: pIC50 for `O=C(NCc1ccc(F)cc1)c1cccc(O)c1O` ?
< 4.00

Quick one: pIC50 for `O=C(NCc1ccc(-c2cccs2)cc1)c1cccc(O)c1O` ?
< 4.00

Quick one: pIC50 for `CN(C)Cc1ccc(C(=O)NCc2ccc(F)cc2)c(O)c1O` ?
< 4.30

Quick one: pIC50 for `CC(=O)Nc1cc(O)c(O)c(C(=O)NCc2ccc(F)cc2)c1` ?
< 4.00

Quick one: pIC50 for `CNC(=O)Cc1ccccc1CNC(=O)c1cccc(O)c1O` ?
< 4.00

Quick one: pIC50 for `O=C(NCC1CCCCC1)c1cccc(O)c1O` ?
< 4.00
